Provenance of the data: patent US9770026B2

# Tested on: carmine spider mite
# ASSAY EXPLANATION: bioactivity test against carmine spider mite, airbrush spray
# Assay type: in vivo
# TEST SETTINGS: Tetranychus cinnabarinus, 72 h, 600 mg/L; contrastive test; read-out: Insecticidal activity against carmine spider mite (% )
# Method: Compounds were dissolved in mixed solvent (acetone:methanol=1:1), and diluted to required concentration with water containing 0.1% of tween 80. […] The method: Broadbean shoots with two true leaves in pot were taken, the healthy adults of carmine spider mite were inoculated to the leaves. The adults were counted and then sprayed with airbrush at the pressure of 0.7 kg/cm^2 and at dose of 0.5 ml. […] Scores were conducted and mortalities were calculated after 72 hrs.
PROPERTY LABEL: pest or weed control at 600 µg/mL
Please append the unit to your numeric answer.

INSERT INTO assay_data (compound, observed) VALUES
  ('CCc1ncnc(OCc2ccc(Oc3ccc(Cl)cc3)nc2)c1Cl [CK25, reference compound]', '0%'),
  ('CCc1ncnc(OC(CC)c2ccc(Oc3ccc(C(F)(F)F)cn3)cc2)c1Cl (stereo not drawn) [CK15, reference compound]', '59%'),
  ('FC(F)(F)c1cnc(Oc2ccc(CCNc3ncnc(Cl)c3Cl)cc2)c(Cl)c1 [CK72, reference compound]', '13%'),
  ('Cc1ncnc(NCCc2ccc(Oc3ccc(C(F)(F)F)cn3)cc2)c1Cl [Compound I-6729]', '100%'),
  ('Cc1ncnc(NCCc2ccc(Oc3ccc(Cl)cc3)nc2)c1Cl [III-7]', '100%');

Now take the following compound into account.
Prompt line: Write down pest or weed control at 600 µg/mL measured for item Cc1ncnc(NC(C)c2ccc(Oc3ncc(C(F)(F)F)cc3Cl)cc2)c1Cl (stereo not drawn) [CK27, reference compound]
Response line: 100%

###

# Tested on: wheat powdery mildew
# ASSAY EXPLANATION: protectant activity in vivo against wheat powdery mildew
# TEST SETTINGS: Triticum aestivum, 168 h, read-out: control effect against wheat powdery mildew (%), 6.25 mg/L; protectant activity
PROPERTY LABEL: pest or weed control at 6.25 µg/mL (%)
Your answer should be a plain number; it is taken to be in %.

INSERT INTO assay_data (compound, system_under_test, display_unit, observed) VALUES
  ('FC(F)(F)c1ccc(Oc2ccc(CCNc3cc(Cl)ncn3)cc2)nc1 [CK69, reference compound]', 'wheat powdery mildew', '%', 0);

Prompt line: Write down pest or weed control at 6.25 µg/mL measured for item FC(F)c1ncnc(NCCc2ccc(Oc3ccc(C(F)(F)F)cn3)cc2)c1Cl
Response line: 100

Prompt line: Write down pest or weed control at 6.25 µg/mL measured for item CCC(Nc1ncnc(C)c1Cl)c1ccc(Oc2ccc(C(F)(F)F)cn2)cc1 (stereo not drawn) [CK41, reference compound]
Response line: 0

Prompt line: Write down pest or weed control at 6.25 µg/mL measured for item FC(F)(F)c1ccc(Oc2ccc(CCNc3ncnc4ccccc34)cc2)cc1 [CK11, reference compound]
Response line: 0

Prompt line: Write down pest or weed control at 6.25 µg/mL measured for item CCC(Nc1ncnc(C)c1Cl)c1ccc(OC(F)F)cc1 (stereo not drawn) [diflumetorim, reference compound]
Response line: 90

Prompt line: Write down pest or weed control at 6.25 µg/mL measured for item CC(F)c1ncnc(NCCc2ccc(Oc3ccc(C(F)(F)F)cc3)cc2)c1Cl (stereo not drawn) [CK1, reference compound]
Response line: 80
